- System: Human immunodeficiency virus 1
- Assay Notes: Antiviral activity against wild type Human immunodeficiency virus 1
- Format: functional, organism-based
Quantity Name: pEC50
Reminder that pEC50 is minus the log10 of a molar concentration.

Study these solved cases before continuing.
[
  {
    "Compound": "CC(C)CN(C[C@@H](O)[C@H](Cc1ccccc1)NC(=O)[C@@H]1CN(c2cccc(S(C)(=O)=O)c2)C(=O)O1)S(=O)(=O)c1ccc2ncsc2c1",
    "pEC50": 8.30
  },
  {
    "Compound": "COc1ccc(S(=O)(=O)N(CC(C)C)C[C@@H](O)[C@H](Cc2ccccc2)NC(=O)[C@@H]2CN(c3cccc(S(C)(=O)=O)c3)C(=O)O2)cc1",
    "pEC50": 8.26
  },
  {
    "Compound": "CC(C)CN(C[C@@H](O)[C@H](Cc1ccccc1)NC(=O)[C@@H]1CN(c2cccc(N)c2)C(=O)O1)S(=O)(=O)c1ccc2ncsc2c1",
    "pEC50": 8.77
  },
  {
    "Compound": "CC(C)CN(C[C@@H](O)[C@H](Cc1ccccc1)NC(=O)[C@@H]1CN(c2cccc(S(C)(=O)=O)c2)C(=O)O1)S(=O)(=O)c1ccc2c(c1)OCO2",
    "pEC50": 8.40
  }
]

Q) Could you share which pEC50 value was measured for CC(C)CN(C[C@@H](O)[C@H](Cc1ccccc1)NC(=O)[C@@H]1CN(c2cccc(OC(F)(F)F)c2)C(=O)O1)S(=O)(=O)c1ccc2ncsc2c1 ?
A) 7.66

Q) Here is the next molecule: CC(=O)c1cccc(N2C[C@@H](C(=O)N[C@@H](Cc3ccccc3)[C@H](O)CN(CC(C)C)S(=O)(=O)c3ccc4ncsc4c3)OC2=O)c1
A) 8.19

----------
- Test system: Human immunodeficiency virus 1
- Assay Notes: Antiviral activity against Human immunodeficiency virus 1 clade B isolated from HIV-AIDS patient
- Type: functional, organism-based
Parameter: EC50. Scope: all listed entries.
Unit nM implied. Number only.

Below: 2 molecules and their reported EC50.
[
  {
    "Compound": "CC(C)CN(C[C@@H](O)[C@H](Cc1ccccc1)NC(=O)[C@@H]1CN(c2cccc(S(C)(=O)=O)c2)C(=O)O1)S(=O)(=O)c1ccc2c(c1)OCO2",
    "Unit Info": "nM",
    "EC50": 3.5
  },
  {
    "Compound": "COC(=O)Nc1cccc(N2C[C@@H](C(=O)N[C@@H](Cc3ccccc3)[C@H](O)CN(CC(C)C)S(=O)(=O)c3ccc4ncsc4c3)OC2=O)c1",
    "Unit Info": "nM",
    "EC50": 1.6
  }
]

Q) Report EC50 for CC(=O)c1cccc(N2C[C@@H](C(=O)N[C@@H](Cc3ccccc3)[C@H](O)CN(CC(C)C)S(=O)(=O)c3ccc4ncsc4c3)OC2=O)c1 tested on Human immunodeficiency virus 1.
A) 4.2

Q) // repeat for CC(C)CN(C[C@@H](O)[C@H](Cc1ccccc1)NC(=O)[C@@H]1CN(c2cccc(C(F)(F)F)c2)C(=O)O1)S(=O)(=O)c1ccc2ncsc2c1 and report
A) 9.9

Q) Same thing, different molecule: CC(C)CN(C[C@@H](O)[C@H](Cc1ccccc1)NC(=O)O[C@H]1CO[C@H]2OCC[C@H]21)S(=O)(=O)c1ccc(N)cc1
A) 0.4

Q) What about CC(=O)Nc1cccc(N2C[C@@H](C(=O)N[C@@H](Cc3ccccc3)[C@H](O)CN(CC(C)C)S(=O)(=O)c3ccc4c(c3)OCO4)OC2=O)c1 ?
A) 6.3

----------
- System: Human immunodeficiency virus 1
- Assay Notes: Antiviral activity against multidrug resistant Human immunodeficiency virus 1 MDRC4
- Type: functional, organism-based
Exam item: assign 1 to entries whose EC50 is below 30 nM and -1 to entries at or above 30 nM. Note that a value of exactly 30 nM receives -1.

[
  {
    "Compound": "CC(C)CN(C[C@@H](O)[C@H](Cc1ccccc1)NC(=O)[C@@H]1CN(c2cccc(N)c2)C(=O)O1)S(=O)(=O)c1ccc2ncsc2c1",
    "Discrete Label": 1
  },
  {
    "Compound": "COC(=O)Nc1cccc(N2C[C@@H](C(=O)N[C@@H](Cc3ccccc3)[C@H](O)CN(CC(C)C)S(=O)(=O)c3ccc4ncsc4c3)OC2=O)c1",
    "Discrete Label": 1
  },
  {
    "Compound": "COc1ccc(S(=O)(=O)N(CC(C)C)C[C@@H](O)[C@H](Cc2ccccc2)NC(=O)[C@@H]2CN(c3cccc(N)c3)C(=O)O2)cc1",
    "Discrete Label": -1
  }
]

Q) Would you kindly verify if EC50 of CC(C)CN(C[C@@H](O)[C@H](Cc1ccccc1)NC(=O)[C@@H]1CN(c2cccc(OC(F)(F)F)c2)C(=O)O1)S(=O)(=O)c1ccc2ncsc2c1 is strictly less than 30 nM?
A) -1

Q) Follow-up item: CC(=O)Nc1cccc(N2C[C@@H](C(=O)N[C@@H](Cc3ccccc3)[C@H](O)CN(CC(C)C)S(=O)(=O)c3ccc4c(c3)OCO4)OC2=O)c1
A) -1

----------
- Test system: Human immunodeficiency virus 1
- Assay Notes: Antiviral activity against Human immunodeficiency virus 1 clade B isolated from HIV-AIDS patient
- Format: functional, organism-based
Measured EC50 by item
Quick note: give the figure in nM, leave out the unit.

Sample answers from the record:
[
  {
    "Compound": "CC(C)CN(C[C@@H](O)[C@H](Cc1ccccc1)NC(=O)[C@@H]1CN(c2cccc(S(C)(=O)=O)c2)C(=O)O1)S(=O)(=O)c1ccc2ncsc2c1",
    "Measurement Target": "Human immunodeficiency virus 1",
    "Quantity Name": "EC50",
    "Number": 3.5
  },
  {
    "Compound": "COc1ccc(S(=O)(=O)N(CC(C)C)C[C@@H](O)[C@H](Cc2ccccc2)NC(=O)[C@@H]2CN(c3cccc(N)c3)C(=O)O2)cc1",
    "Measurement Target": "Human immunodeficiency virus 1",
    "Quantity Name": "EC50",
    "Number": 3
  },
  {
    "Compound": "COc1ccc(S(=O)(=O)N(CC(C)C)C[C@@H](O)[C@H](Cc2ccccc2)NC(=O)[C@@H]2CN(c3cccc(S(C)(=O)=O)c3)C(=O)O2)cc1",
    "Measurement Target": "Human immunodeficiency virus 1",
    "Quantity Name": "EC50",
    "Number": 4.7
  },
  {
    "Compound": "CC(=O)Nc1cccc(N2C[C@@H](C(=O)N[C@@H](Cc3ccccc3)[C@H](O)CN(CC(C)C)S(=O)(=O)c3ccc4ncsc4c3)OC2=O)c1",
    "Measurement Target": "Human immunodeficiency virus 1",
    "Quantity Name": "EC50",
    "Number": 7.7
  },
  {
    "Compound": "CC(C)CN(C[C@@H](O)[C@H](Cc1ccccc1)NC(=O)[C@@H]1CN(c2ccccc2)C(=O)O1)S(=O)(=O)c1ccc2ncsc2c1",
    "Measurement Target": "Human immunodeficiency virus 1",
    "Quantity Name": "EC50",
    "Number": 14.1
  },
  {
    "Compound": "CC(C)CN(C[C@@H](O)[C@H](Cc1ccccc1)NC(=O)[C@@H]1CN(c2cccc(N)c2)C(=O)O1)S(=O)(=O)c1ccc2ncsc2c1",
    "Measurement Target": "Human immunodeficiency virus 1",
    "Quantity Name": "EC50",
    "Number": 1.3
  }
]

Q) Reported EC50 for CC(C)CN(C[C@@H](O)[C@H](Cc1ccccc1)NC(=O)[C@@H]1CN(c2cccc(N)c2)C(=O)O1)S(=O)(=O)c1ccc2c(c1)OCO2 : what is it?
A) 2.8

Q) Similarly, CC(C)CN(C[C@@H](O)[C@H](Cc1ccccc1)NC(=O)[C@@H]1CN(c2cccc([N+](=O)[O-])c2)C(=O)O1)S(=O)(=O)c1ccc2ncsc2c1 ?
A) 5.7

Q) Lookup CC(C)CN(C[C@@H](O)[C@H](Cc1ccccc1)NC(=O)[C@@H]1CN(c2cccc(OC(F)(F)F)c2)C(=O)O1)S(=O)(=O)c1ccc2ncsc2c1
A) 12.7

----------
Ki, Protease (Human immunodeficiency virus 1, UniProt Q9YQ12), per-entry values.
Form entry: value (nM) — number only.

The examples below pair each entry with its known result.
[
  {
    "Compound": "CC(=O)c1ccc(N2C[C@@H](C(=O)N[C@@H](Cc3ccccc3)[C@H](O)CN(CC(C)C)S(=O)(=O)c3ccc(CO)cc3)OC2=O)cc1",
    "Ki, nM": 0.317
  },
  {
    "Compound": "CC(C)CN(C[C@@H](O)[C@H](Cc1ccccc1)NC(=O)[C@@H]1CN(c2ccc(F)cc2)C(=O)O1)S(=O)(=O)c1ccc(N)cc1",
    "Ki, nM": 0.448
  },
  {
    "Compound": "CC(C)CN(C[C@@H](O)[C@H](Cc1ccccc1)NC(=O)[C@@H]1CN(c2ccc(F)c(F)c2)C(=O)O1)S(=O)(=O)c1ccc(CO)cc1",
    "Ki, nM": 0.33
  },
  {
    "Compound": "CC(=O)c1cccc(N2C[C@@H](C(=O)N[C@@H](Cc3ccccc3)[C@H](O)CN(CC(C)C)S(=O)(=O)c3ccc(CO)cc3)OC2=O)c1",
    "Ki, nM": 0.236
  },
  {
    "Compound": "CC(C)CN(C[C@@H](O)[C@H](Cc1ccccc1)NC(=O)[C@@H]1CN(c2ccc(F)cc2F)C(=O)O1)S(=O)(=O)c1ccc(N)cc1",
    "Ki, nM": 0.385
  }
]

Q) Entry CC(C)CN(C[C@@H](O)[C@H](Cc1ccccc1)NC(=O)[C@@H]1CN(c2cccc(F)c2)C(=O)O1)S(=O)(=O)c1ccc(CO)cc1 : reported Ki = ?
A) 0.319

Q) Here is the next compound: CC(C)CN(C[C@@H](O)[C@H](Cc1ccccc1)NC(=O)[C@@H]1CN(c2ccccc2)C(=O)O1)S(=O)(=O)c1ccc(CO)cc1
A) 0.252

Q) Follow-up item: CC(C)CN(C[C@@H](O)[C@H](Cc1ccccc1)NC(=O)[C@@H]1CN(c2ccc(F)cc2F)C(=O)O1)S(=O)(=O)c1ccc(CO)cc1
A) 0.212

Q) Continue with CC(=O)c1cccc(N2C[C@@H](C(=O)N[C@@H](Cc3ccccc3)[C@H](O)CN(CC(C)C)S(=O)(=O)c3ccc4c(c3)OCO4)OC2=O)c1
A) 0.006

Q) Then this compound: CC(C)CN(C[C@@H](O)[C@H](Cc1ccccc1)NC(=O)[C@@H]1CN(c2ccc(F)cc2F)C(=O)O1)S(=O)(=O)c1ccc2c(c1)OCO2
A) 0.347
